Origin of values: patent US20160185837A1

biological target: human glucagon receptor (human, UniProt P47871 26-477); assay: cell-based or functional assay
# cAMP EC50 listing for each entry below

Query block: // cAMP EC50 lookup, key: IP290 (Fc fusion) YSEGTFTSDYSKLLEEEAVRLFIEWLVKGPGGGGGGGGGGGGGGGGGGGGACPPC
Result block: > 2.59 µM

Query block: For the binder shown here, IP354 (Fc fusion) YSEGMHTSDFSKLLEEEAVRLFIEWLLAGGGGGGSGGGGSGGGGSGGGGSATHTCPPC , give the reported cAMP EC50.
Result block: > 7.37 µM

Query block: Recorded cAMP EC50 of IP423 (Fc fusion) YSEGTHTSDLRILLEEEAVRLFIEFLLAGGGSGGGGSGGGGSGGGGSGGGGSGGGGSGGGGSGGGGSACPPC , please.
Result block: > 0.0342 µM
